- Tested on: A549 NSCLC
- TEST_METHOD_NOTES: NCI tumour cell line growth inhibition, 48 h
Each entry below carries its reported TGI.
READOUT_TYPE: TGI

INSERT INTO measurements (compound, assay_system, readout_type, value_observed) VALUES
  ('CCOC(=O)CSc1nc(-c2ccc(OC)cc2)c(C#N)c(=O)[nH]1', 'A549 NSCLC', 'TGI', '> 100 µM'),
  ('CCCCCCCCCCCCCCCCOP(=O)(O)OP(=O)(O)OCC1OC(n2ccc(N)nc2=O)CC1O (stereo not drawn)', 'A549 NSCLC', 'TGI', '> 100 µM'),
  ('c1ccc(COCC23CCN(Cc4ccccc4)C(CC(OCc4ccccc4)C2)S3)cc1 (stereo not drawn)', 'A549 NSCLC', 'TGI', '> 100 µM'),
  ('Cc1cc(Cl)nc(NC(=O)CSc2ccc(Cl)cc2)n1', 'A549 NSCLC', 'TGI', '> 100 µM'),
  ('CNC(=O)Nc1cc2c3c(c1)CCCN3CCC2', 'A549 NSCLC', 'TGI', '> 10 µM'),
  ('COc1cccc(-c2nn(-c3ccccc3)cc2-c2ccnc(NCCNS(=O)(=O)c3ccc(C(F)(F)F)cc3)c2)c1', 'A549 NSCLC', 'TGI', '32 µM'),
  ('COC(=O)c1cccc(NC(=O)Nc2ccc3oc(=O)c4ccccc4c3c2)c1', 'A549 NSCLC', 'TGI', '> 100 µM'),
  ('COc1ccc(-c2oc3c(CC(=O)O)cccc3c(=O)c2OC)cc1', 'A549 NSCLC', 'TGI', '> 100 µM');

These measurements were taken from PubChem BioAssay (NCI).
